experimental.target: UniProtKB Q01726
assay.details: Displacement of [125I]-NDP-alpha-MSH from human MC1R LBD expressed in HEK293 cell membranes incubated for 16 to 23 hrs in dark by scintillation proximity assay
Design: concentration or dose not given beside the values
condition.context: concentration not given here
Where a SMILES comes first, the peptide text is derived from it. Bridges are numbered along the chain shown (N, C = ends). [ ]: non-standard residue; d: D form. NMeW = CN[C@@H](Cc1c[nH]c2ccccc12)C(=O)O
Exercise: state measured inhibition for each of the molecules provided.
Answer format: numeric, % implied, no suffix.

Sample CC[C@H](C)[C@@H]1NC(=O)[C@@H]2CCCN2C(=O)[C@H](Cc2c[nH]c3ccccc23)N(C)C(=O)[C@H](CCCNC(=N)N)N(C)C(=O)[C@@H](Cc2ccccc2)NC(=O)[C@H](Cc2cnc[nH]2)NC(=O)[C@H]([C@@H](C)O)NC(=O)[C@@H]2CSSC[C@H](NC1=O)C(=O)N[C@@H](Cc1ccccc1)C(=O)N1CCC[C@H]1C(=O)N[C@@H](CC(=O)O)C(=O)NCC(=O)N[C@@H](CCCNC(=N)N)C(=O)N2 ; inhibition observed: 100

The reported value for CC[C@H](C)[C@@H]1NC(=O)[C@@H]2CCCN2C(=O)[C@H](Cc2c[nH]c3ccccc23)NC(=O)[C@H](CCCNC(=N)N)N(C)C(=O)[C@@H](Cc2ccccc2)NC(=O)[C@H](Cc2cnc[nH]2)N(C)C(=O)[C@H]([C@@H](C)O)NC(=O)[C@@H]2CSSC[C@H](NC1=O)C(=O)N[C@@H](Cc1ccccc1)C(=O)N1CCC[C@H]1C(=O)N[C@@H](CC(=O)O)C(=O)NCC(=O)N[C@@H](CCCNC(=N)N)C(=O)N2 in terms of inhibition is 100

What the record says about CC[C@H](C)[C@@H]1NC(=O)[C@@H]2CCCN2C(=O)[C@H](Cc2c[nH]c3ccccc23)N(C)C(=O)[C@H](CCCNC(=N)N)NC(=O)[C@@H](Cc2ccccc2)NC(=O)[C@H](Cc2cnc[nH]2)NC(=O)[C@H]([C@@H](C)O)NC(=O)[C@@H]2CSSC[C@H](NC1=O)C(=O)N[C@@H](Cc1ccccc1)C(=O)N1CCC[C@H]1C(=O)N[C@@H](CC(=O)O)C(=O)NCC(=O)N[C@@H](CCCNC(=N)N)C(=O)N2 (cyclo(CFPDGRCTH[dF]R[NMeW]PI); disulfide 1-7) : inhibition is 100

----------
experimental.target: Melanocortin receptor 4 (Homo sapiens, UniProt P32245)
Sequence (P32245 whole entry): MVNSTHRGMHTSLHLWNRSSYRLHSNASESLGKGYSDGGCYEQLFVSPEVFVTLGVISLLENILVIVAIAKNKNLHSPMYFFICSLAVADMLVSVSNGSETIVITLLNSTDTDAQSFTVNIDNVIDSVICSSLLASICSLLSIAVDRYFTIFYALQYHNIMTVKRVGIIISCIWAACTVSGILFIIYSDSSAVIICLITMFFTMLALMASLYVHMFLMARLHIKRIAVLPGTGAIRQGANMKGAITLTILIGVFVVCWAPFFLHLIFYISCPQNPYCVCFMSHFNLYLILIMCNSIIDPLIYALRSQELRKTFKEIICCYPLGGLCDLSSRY
assay.details: Agonist activity at human MC4R expressed in high doxycyclin-treated HEK293 cell membranes assessed as increase in cAMP production after 15 mins by HTRF method
Type: functional, cell-based
result.type: Activity (%)
Give a bare numeral; the unit % is implied.

According to the records, this compound CC[C@H](C)[C@@H]1NC(=O)[C@@H]2CCCN2C(=O)[C@@H]2CCCN2C(=O)[C@H]([C@@H](C)CC)NC(=O)[C@H](CO)NC(=O)[C@H](C)NC(=O)[C@H]([C@H](C)O)NC(=O)[C@@H]2CSSC[C@H](NC1=O)C(=O)N[C@@H](Cc1cnc[nH]1)C(=O)N[C@H](Cc1ccccc1)C(=O)N[C@@H](CCCNC(=N)N)C(=O)N(C)[C@@H](Cc1c[nH]c3ccccc13)C(=O)N[C@@H](CCCNC(=N)N)C(=O)N2 displays Activity of 100

The measured Activity associated with CC[C@H](C)[C@@H]1NC(=O)[C@@H]2CCCN2C(=O)[C@@H]2CCCN2C(=O)[C@H]([C@@H](C)CC)NC(=O)[C@H](CO)NC(=O)[C@H](C)NC(=O)[C@H]([C@H](C)O)NC(=O)[C@@H]2CSSC[C@H](NC1=O)C(=O)N(C)[C@@H](Cc1cnc[nH]1)C(=O)N[C@H](Cc1ccccc1)C(=O)N[C@@H](CCCNC(=N)N)C(=O)N(C)[C@@H](Cc1c[nH]c3ccccc13)C(=O)N[C@@H](CCCNC(=N)N)C(=O)N2 reads 100

Entry under test: CC[C@H](C)[C@@H]1NC(=O)[C@@H]2CCCN2C(=O)[C@H](Cc2c[nH]c3ccccc23)NC(=O)[C@H](CCCNC(=N)N)NC(=O)[C@H](Cc2ccccc2)NC(=O)[C@H](Cc2cnc[nH]2)NC(=O)[C@H]([C@@H](C)O)NC(=O)[C@@H]2CSSC[C@H](NC1=O)C(=O)N[C@@H](Cc1ccccc1)C(=O)N1CCC[C@H]1C(=O)N[C@@H](CC(=O)O)C(=O)NCC(=O)N[C@@H](CCCNC(=N)N)C(=O)N2 . Its Activity was 100

----------
experimental.target: Melanocyte-stimulating hormone receptor (Homo sapiens)
Sequence (Q01726 whole entry, looked up, the tested form may be a part): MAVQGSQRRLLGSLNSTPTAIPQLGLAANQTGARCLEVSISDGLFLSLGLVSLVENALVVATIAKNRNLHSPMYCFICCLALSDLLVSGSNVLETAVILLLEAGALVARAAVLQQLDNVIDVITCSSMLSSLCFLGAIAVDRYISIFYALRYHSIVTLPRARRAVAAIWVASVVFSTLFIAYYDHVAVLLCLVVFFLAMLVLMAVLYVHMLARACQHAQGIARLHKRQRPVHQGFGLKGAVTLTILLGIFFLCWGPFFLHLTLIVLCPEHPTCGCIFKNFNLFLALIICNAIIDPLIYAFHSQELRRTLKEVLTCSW
assay.details: Agonist activity at human MC1R expressed in low doxycyclin-treated HEK293 cell membranes assessed as increase in cAMP production after 45 mins by HTRF method
Assay type: functional, cell-based
Where a SMILES comes first, the peptide text is derived from it. Bridges are numbered along the chain shown (N, C = ends). [ ]: non-standard residue; d: D form. NMeW = CN[C@@H](Cc1c[nH]c2ccccc12)C(=O)O
Give Activity for every item shown.
# number only, unit % dropped from output

Given item CC[C@H](C)[C@@H]1NC(=O)[C@@H]2CCCN2C(=O)[C@@H]2CCCN2C(=O)[C@H]([C@@H](C)CC)NC(=O)[C@H](CO)NC(=O)[C@H](C)NC(=O)[C@H]([C@H](C)O)NC(=O)[C@@H]2CSSC[C@H](NC1=O)C(=O)N[C@@H](Cc1cnc[nH]1)C(=O)N[C@H](Cc1ccccc1)C(=O)N(C)[C@@H](CCCNC(=N)N)C(=O)N[C@@H](Cc1c[nH]c3ccccc13)C(=O)N[C@@H](CCCNC(=N)N)C(=O)N2 , the value recorded as its Activity is 100

compound CC[C@H](C)[C@@H]1NC(=O)[C@@H]2CCCN2C(=O)[C@@H]2CCCN2C(=O)[C@H]([C@@H](C)CC)NC(=O)[C@H](CO)NC(=O)[C@H](C)NC(=O)[C@H]([C@H](C)O)NC(=O)[C@@H]2CSSC[C@H](NC1=O)C(=O)N(C)[C@@H](Cc1cnc[nH]1)C(=O)N[C@H](Cc1ccccc1)C(=O)N[C@@H](CCCNC(=N)N)C(=O)N[C@@H](Cc1c[nH]c3ccccc13)C(=O)N[C@@H](CCCNC(=N)N)C(=O)N2 , Activity observed: 100

Value of measured Activity for the entry CC[C@H](C)[C@@H]1NC(=O)[C@@H]2CCCN2C(=O)[C@H](Cc2c[nH]c3ccccc23)N(C)C(=O)[C@H](CCCNC(=N)N)NC(=O)[C@@H](Cc2ccccc2)NC(=O)[C@H](Cc2cnc[nH]2)NC(=O)[C@H]([C@@H](C)O)NC(=O)[C@@H]2CSSC[C@H](NC1=O)C(=O)N[C@@H](Cc1ccccc1)C(=O)N1CCC[C@H]1C(=O)N[C@@H](CC(=O)O)C(=O)NCC(=O)N[C@@H](CCCNC(=N)N)C(=O)N2 (cyclo(CFPDGRCTH[dF]R[NMeW]PI); disulfide 1-7) : 100

----------
experimental.target: Melanocyte-stimulating hormone receptor (Homo sapiens)
assay.details: Displacement of [125I]-NDP-alpha-MSH from human MC1R LBD expressed in HEK293 cell membranes incubated for 16 to 23 hrs in dark by scintillation proximity assay
Set-up: concentration or dose not given beside the values
condition.context: concentration not given here
result.type: inhibition (%)
Give the value in % but do not write % after it.

inhibition reading for CC[C@H](C)[C@@H]1NC(=O)[C@@H]2CCCN2C(=O)[C@H](Cc2c[nH]c3ccccc23)NC(=O)[C@H](CCCNC(=N)N)NC(=O)[C@@H](Cc2ccccc2)NC(=O)[C@H](Cc2cnc[nH]2)NC(=O)[C@H]([C@@H](C)O)NC(=O)[C@@H]2CSSC[C@H](NC1=O)C(=O)N[C@@H](Cc1ccccc1)C(=O)N1CCC[C@H]1C(=O)N[C@@H](CC(=O)O)C(=O)NCC(=O)N[C@@H](CCCNC(=N)N)C(=O)N2 : 100

----------
experimental.target: Melanocortin receptor 4 (Homo sapiens, UniProt P32245)
assay.details: Agonist activity at human MC4R expressed in low doxycyclin-treated HEK293 cell membranes assessed as increase in cAMP production after 45 mins by HTRF method
Format: functional, cell-based
result.type: Activity (%)
Report as a plain number; the unit % is understood.

Field Activity (entry CC[C@H](C)[C@@H]1NC(=O)[C@@H]2CCCN2C(=O)[C@H](Cc2c[nH]c3ccccc23)NC(=O)[C@H](CCCNC(=N)N)N(C)C(=O)[C@@H](Cc2ccccc2)NC(=O)[C@H](Cc2cnc[nH]2)NC(=O)[C@H]([C@@H](C)O)NC(=O)[C@@H]2CSSC[C@H](NC1=O)C(=O)N[C@@H](Cc1ccccc1)C(=O)N1CCC[C@H]1C(=O)N[C@@H](CC(=O)O)C(=O)NCC(=O)N[C@@H](CCCNC(=N)N)C(=O)N2 ) reads 100

Quick note, Activity for CC[C@H](C)[C@@H]1NC(=O)[C@@H]2CCCN2C(=O)[C@@H]2CCCN2C(=O)[C@H]([C@@H](C)CC)NC(=O)[C@H](CO)NC(=O)[C@H](C)NC(=O)[C@H]([C@H](C)O)NC(=O)[C@@H]2CSSC[C@H](NC1=O)C(=O)N[C@@H](Cc1cnc[nH]1)C(=O)N[C@@H](Cc1ccccc1)C(=O)N[C@@H](CCCNC(=N)N)C(=O)N[C@@H](Cc1c[nH]c3ccccc13)C(=O)N[C@@H](CCCNC(=N)N)C(=O)N2 landed at 100

Entry CC[C@H](C)[C@@H]1NC(=O)[C@@H]2CCCN2C(=O)[C@H](Cc2c[nH]c3ccccc23)N(C)C(=O)[C@H](CCCNC(=N)N)N(C)C(=O)[C@@H](Cc2ccccc2)NC(=O)[C@H](Cc2cnc[nH]2)NC(=O)[C@H]([C@@H](C)O)NC(=O)[C@@H]2CSSC[C@H](NC1=O)C(=O)N[C@@H](Cc1ccccc1)C(=O)N1CCC[C@H]1C(=O)N[C@@H](CC(=O)O)C(=O)NCC(=O)N[C@@H](CCCNC(=N)N)C(=O)N2 — recorded Activity = 100
